A short record of SI (selectivity index) observed with SFV-Rluc follows.
Lab note: jot down the number only; don't add units.

Here's what some known entries look like.
{"columns": ["COMPOUND", "DATA VALUE"],
 "data": [
  ["CCSc1ccc2c(c1)N(CCCN1CCN(C)CC1)c1ccccc1S2 [Thiethylperazine]", 5.5],
  ["OCCN1CCN(CCCN2c3ccccc3Sc3ccc(Cl)cc32)CC1 [Perphenazine]", 6.2],
  ["Nc1ncnc2c1ncn2[C@@H]1O[C@H](CO)[C@@H](N)[C@H]1O [3′-NH2-3′-deoxyadenosine, 3′-amino-3′-deoxyadenosine]", 10.7],
  ["CC(=O)c1ccc(O)cc1 [4-Hydroxyacetophenone]", 7.8]
]}

Look up SI (selectivity index) with SFV-Rluc for this compound: CC1=CC(=O)c2ccccc2C1=O [Menadione]
2.8

Entry CCN(CC)C(C)CN1c2ccccc2Sc2ccccc21 (stereo not shown) [Ethopropazine] , system SFV-Rluc: what SI (selectivity index) was measured?
10.4

###

Test system: SFV-Rluc
Conditions: primary screening of chemical libraries; compounds tested at 50 µM
Please map values of SFV replication % left to classes as shown: lo (below 40%), mid (40% to below 80%), hi (80% or more)

Below are worked cases with known answers.
{"columns": ["MOLECULE", "GROUP"],
 "data": [
  ["COc1c2occc2c(OC)c2c(=O)cc(C)oc12 [NC-058]", "hi"],
  ["CCN(CC)c1ccc2cc(C(=O)c3cccs3)c(=O)oc2c1 [NC-022]", "lo"],
  ["O=C1c2c(O)cc(O)cc2O[C@H](c2ccc(O)c(O)c2)[C@H]1O [NC-100]", "hi"],
  ["O=c1cc(-c2ccccc2)oc2c1ccc1ccccc12 [NC-002]", "lo"],
  ["CC(Cc1ccc(O)c(O)c1)C(C)Cc1ccc(O)c(O)c1 (centres unmarked) [NC-071]", "lo"]
]}

Class label required: CCOc1ccc(NC(N)=O)cc1 [PC-071]
hi

Please classify: Nc1ccc(C(=O)O)cc1 [PC-010]
mid

Please classify: CC(=O)Nc1nnc(S(N)(=O)=O)s1 [PC-003]
mid

Record COc1cc(C2Oc3cc([C@H]4Oc5cc(O)cc(O)c5C(=O)[C@@H]4O)ccc3OC2CO)ccc1O (some centres unmarked) [NC-093] — which class?
lo

Lab note: sort CN(Cc1cc(Br)cc(Br)c1N)C1CCCCC1.Cl [PC-024] into the matching SFV replication % left band.
mid

###

Endpoint: SFV replication % left (surviving fraction, remaining percentage of SFV replication). System: SFV-Rluc. Items follow.
Structures can show the parent of a compound that is named as a salt.
Unit % implied. Number only.

{"columns": ["COMPOUND", "SYSTEM", "UNIT ABBREVIATION", "DATA VALUE"],
 "data": [
  ["O=C(O)Cc1cccc(O)c1 [3-hydroxyphenylacetic acid]", "SFV-Rluc", "%", 110.8],
  ["NCC(O)c1ccc(O)cc1 (stereo not shown) [Octopamine hydrochloride]", "SFV-Rluc", "%", 102.1]
]}

Query (compound): CCS(=O)(=O)C(C)(C)S(=O)(=O)CC ; field requested: SFV replication % left (surviving fraction, remaining percentage of SFV replication)
86.6

Which SFV replication % left (surviving fraction, remaining percentage of SFV replication) is listed for O=C(Oc1ccccc1C(=O)O)c1ccccc1O ?
127.4

Data request, read-out SFV replication % left (surviving fraction, remaining percentage of SFV replication), for NCC(O)c1cccc(O)c1 (stereo not shown)
126.3

Can you look up the measured SFV replication % left (surviving fraction, remaining percentage of SFV replication) of Oc1cc(O)c2c(c1)O[C@H](c1ccc(O)c(O)c1)[C@@H](O)C2 [(+)-Catechin] for me?
64.5

// returns reported SFV replication % left (surviving fraction, remaining percentage of SFV replication) for input CC(=O)c1cccc(O)c1 [3-Hydroxyacetophenone]
125.8

Suppose we examine the compound CN(C)CCCN1c2ccccc2Sc2cccnc21.Cl [Prothipendyl hydrochloride] ; what SFV replication % left (surviving fraction, remaining percentage of SFV replication) value has been reported?
7.4

If you can, please state the reported SFV replication % left (surviving fraction, remaining percentage of SFV replication) value of CN1C(=O)CN=C(c2ccc(Cl)cc2)c2cc(Cl)ccc21 .
64.0

I'd like to know its SFV replication % left (surviving fraction, remaining percentage of SFV replication). The compound in question is CCOc1ccc(NC(C)=O)cc1 [PC-151]
80.6

###

System: BHK cells
Assay: Cell viability ATP assay, BHK cells
Type: cell-based, hamster
Conditions: Mesocricetus auratus, BHK, 48 h, read-out: Cell viability IC50
OBSERVATION TYPE: IC50 (µM)
Express it in µM; write the number only.

{"columns": ["COMPOUND", "IC50 / µM"],
 "data": [
  ["CCSc1ccc2c(c1)N(CCCN1CCN(C)CC1)c1ccccc1S2", 83.1],
  ["CCCOC(=O)c1cc(O)c(O)c(O)c1 [Propyl gallate]", 103],
  ["CN(C)CCCN1c2ccccc2Sc2ccc(Cl)cc21", 67.3]
]}

The record that follows has no IC50 shown yet.
Consider the compound CC(=O)c1ccc(O)cc1 [4-Hydroxyacetophenone] and give its measured IC50.
164

###

Test system: SFV-Rluc
Where a name gives a salt, the structure may show the parent alone.
Listed next: entries and their corresponding SFV replication % left (surviving fraction, remaining percentage of SFV replication).
Give the number; % is assumed, so skip it.

{"columns": ["COMPOUND", "SYSTEM", "UNIT ABBREVIATION", "DATA VALUE"],
 "data": [
  ["CN(C)CC[C@@H](c1ccc(Br)cc1)c1ccccn1 [Dexbrompheniramine maleate]", "SFV-Rluc", "%", 69.6],
  ["NS(=O)(=O)c1cc2c(cc1Cl)N=CNS2(=O)=O [Chlorothiazide]", "SFV-Rluc", "%", 90.3],
  ["Oc1cccc(O)c1 [Resorcin]", "SFV-Rluc", "%", 83.0],
  ["CCN(CCO)CCCC(C)Nc1ccnc2cc(Cl)ccc12 (stereo not shown) [Hydroxychloroquine sulfate]", "SFV-Rluc", "%", 128.9],
  ["COc1ccc([C@@H]2CC(=O)c3c(O)cc(O[C@@H]4O[C@H](CO[C@@H]5O[C@@H](C)[C@H](O)[C@@H](O)[C@H]5O)[C@@H](O)[C@H](O)[C@H]4O)cc3O2)cc1O", "SFV-Rluc", "%", 77.7],
  ["Cn1c(=O)c2[nH]cnc2n(C)c1=O", "SFV-Rluc", "%", 87.8],
  ["NC(=O)N1c2ccccc2C=Cc2ccccc21 [Carbamazepine]", "SFV-Rluc", "%", 57.2],
  ["O=c1cc(-c2ccccc2)oc2cc(O)cc(O)c12", "SFV-Rluc", "%", 18.1],
  ["CCN(CC)C(C)CN1c2ccccc2Sc2ccccc21 (stereo not shown) [Ethopropazine hydrochloride]", "SFV-Rluc", "%", 20.1],
  ["O=C(O)c1ccccc1C(=O)O", "SFV-Rluc", "%", 143.7]
]}

Now turn to the next compound.
Name the reported SFV replication % left (surviving fraction, remaining percentage of SFV replication) value associated with the compound O[C@H]1[C@H](O)[C@@H](O)[C@H](O)[C@@H](O)[C@H]1O
106.0

###

These compounds were tested on SFV-Rluc; SI (selectivity index) is the recorded read-out.

Use the examples below as a reference point.
{"columns": ["COMPOUND", "DATA VALUE"],
 "data": [
  ["CN1CCC(CN2c3ccccc3Sc3ccccc32)C1 (stereo not drawn)", 5.6],
  ["COc1c2ccoc2cc2oc(=O)ccc12", ">24.6"],
  ["O=C(O)c1ccc(O)c(O)c1", ">25.0"],
  ["Oc1cccc(O)c1O", ">10.7"],
  ["C#C[C@]1(O)CC[C@H]2[C@@H]3CCc4cc(O)ccc4[C@H]3CC[C@@]21C", ">21.1"],
  ["CCCOC(=O)c1cc(O)c(O)c(O)c1 [Propyl gallate]", 5.8]
]}

Reported SI (selectivity index), compound COc1cc(C2Oc3cc([C@H]4Oc5cc(O)cc(O)c5C(=O)[C@@H]4O)ccc3OC2CO)ccc1O (stereo partly drawn) : ____
>12.2

What SI (selectivity index) value was documented for this compound, COc1c(C)c2c(c(O)c1C/C=C(\C)CCC(=O)O)C(=O)OC2 [Mycophenolic acid, reference compound] ?
>1.7

What does the record list as SI (selectivity index) for O=C1C[C@@H](c2ccc(O)cc2)Oc2cc(O)cc(O)c21 ?
42.8

###

Here, each record is paired with measured SFV replication % left data.
Test system: SFV-Rluc
Details: primary screening of chemical libraries; compounds tested at 50 µM
Report the value in % with no unit label.

Field: example entries. Status: answers known.
{"columns": ["COMPOUND", "SFV replication % left [%]"],
 "data": [
  ["Cc1cc(=O)oc2cc(O)cc(O)c12 [NC-122]", 66.7],
  ["CC[C@H]1CN2CCc3cc(OC)c(OC)cc3[C@@H]2C[C@@H]1C[C@H]1NCCc2cc(OC)c(OC)cc21.Cl.Cl [PC-072]", 63.1],
  ["COc1cc2ccc(=O)oc2cc1O [NC-114]", 81.9],
  ["CCC1(CC)C(=O)NC(=O)NC1=O [PC-020]", 64.7],
  ["Cc1c(N)c(=O)n(-c2ccccc2)n1C [PC-011]", 51.6]
]}

Which SFV replication % left is reported for this compound? CC(C(=O)[O-])c1cccc(Oc2ccccc2)c1.CC(C(=O)[O-])c1cccc(Oc2ccccc2)c1.[Ca+2] (centres unmarked) [PC-080]
87.6

What value of measured SFV replication % left is listed for Oc1ccc(O)cc1 [NC-053] ?
16.9

// query SFV replication % left value for entry COc1cc(/C=C/C(=O)O)cc(OC)c1O [NC-095]
22.0
